system: A/WSN/33 (H1N1) virus with NA H274Y resistance mutation; type: cell-based, Influenza A/WSN/33 (H1N1)
pIC50: −log10 of the molar value.
Measured metric: pIC50

CCOC(=O)C1=C[C@@H](OC(CC)CC)[C@H](NC(C)=O)[C@@H](N)C1 [Oseltamivir] ... 4.28
